Tested on: Escherichia coli
Test: Antibacterial activity against Escherichia coli isolate 055 by broth microdilution assay
Format: functional
endpoint-name: MIC (µg/mL)
Report the value in µg/mL with no unit label.

Req: Lab request: please report MIC under test system Escherichia coli for `NC[C@@H]1O[C@H](O[C@H]2[C@@H](O)[C@H](O[C@@H]3[C@@H](O)[C@H](N)C[C@H](N)[C@H]3O[C@H]3O[C@H](CO)[C@@H](O[C@H]4O[C@H](CO)[C@@H](O)[C@H](O)[C@H]4O)[C@H](O)[C@H]3N)O[C@@H]2CO)[C@H](N)[C@@H](O)[C@@H]1O`
Resp: 128

Req: Lab request: please report MIC under test system Escherichia coli for `NC[C@@H]1O[C@H](O[C@H]2[C@@H](O)[C@H](O[C@@H]3[C@@H](O)[C@H](N)C[C@H](N)[C@H]3O[C@H]3O[C@H](CO)[C@@H](O)[C@H](O)[C@H]3N)O[C@@H]2CO)[C@H](N)[C@@H](O)[C@@H]1O`
Resp: 8

Req: Lab request: please report MIC under test system Escherichia coli for `NC[C@@H]1O[C@H](O[C@H]2[C@@H](O)[C@H](O[C@@H]3[C@@H](O)[C@H](N)C[C@H](N)[C@H]3O[C@H]3O[C@H](CO)[C@@H](OCCCc4ccccc4)[C@H](O)[C@H]3N)O[C@@H]2CO)[C@H](N)[C@@H](O)[C@@H]1O`
Resp: 16

Req: Lab request: please report MIC under test system Escherichia coli for NC[C@@H]1O[C@H](O[C@H]2[C@@H](O)[C@H](O[C@@H]3[C@@H](O)[C@H](N)C[C@H](N)[C@H]3O[C@H]3O[C@@H]4COC(CCc5ccccc5)O[C@H]4[C@H](O)[C@H]3N)O[C@@H]2CO)[C@H](N)[C@@H](O)[C@@H]1O (stereo partly specified)
Resp: 32

----------
Experiment: Inhibition of human ribosome containing eukaryotic ribosomal RNA A-site Cyt14 allele in rabbit reticulocyte lysates assessed as reduction in ribosome-mediated protein synthesis in presence of S-30 extracts by fire fly luciferase synthesis based cell-free translation assay
Would you kindly list IC50 for each of these compounds?
Report the value in µg/mL with no unit label.

Req: Fill blank: measured IC50 of the compound `NC[C@@H]1O[C@H](O[C@H]2[C@@H](O)[C@H](O[C@@H]3[C@@H](O)[C@H](N)C[C@H](N)[C@H]3O[C@H]3O[C@H](CO)[C@@H](O[C@@H]4O[C@H](CO)[C@@H](O)[C@H](O)[C@H]4O)[C@H](O)[C@H]3N)O[C@@H]2CO)[C@H](N)[C@@H](O)[C@@H]1O` is ____.
Resp: 117.53

Req: Fill blank: measured IC50 of the compound `NC[C@@H]1O[C@H](O[C@H]2[C@@H](O)[C@H](O[C@@H]3[C@@H](O)[C@H](N)C[C@H](N)[C@H]3O[C@H]3O[C@H](CO)[C@@H](O[C@H]4O[C@H](CO)[C@H](O)[C@H](O)[C@H]4O)[C@H](O)[C@H]3N)O[C@@H]2CO)[C@H](N)[C@@H](O)[C@@H]1O` is ____.
Resp: 35.63

Req: Fill blank: measured IC50 of the compound `NC[C@@H]1O[C@H](O[C@H]2[C@@H](O)[C@H](O[C@@H]3[C@@H](O)[C@H](N)C[C@H](N)[C@H]3O[C@H]3O[C@H](CO)[C@@H](O)[C@H](O)[C@H]3N)O[C@@H]2CO)[C@H](N)[C@@H](O)[C@@H]1O` is ____.
Resp: 10.39

Req: Fill blank: measured IC50 of the compound `CN[C@@H]1[C@@H](O[C@H]2O[C@H](CO)[C@@H](N)[C@H](O)[C@H]2O)O[C@H]2C[C@@H](N)[C@@H](O[C@H]3[C@H](O)[C@@H](O)[C@H](N)C[C@@H]3N)O[C@@H]2[C@@H]1O` is ____.
Resp: 49.17
